- assayedTarget: ALK-5 (TβRI) (Homo sapiens, UniProt P36897)
- Sequence (P36897 205-495 limits assumed): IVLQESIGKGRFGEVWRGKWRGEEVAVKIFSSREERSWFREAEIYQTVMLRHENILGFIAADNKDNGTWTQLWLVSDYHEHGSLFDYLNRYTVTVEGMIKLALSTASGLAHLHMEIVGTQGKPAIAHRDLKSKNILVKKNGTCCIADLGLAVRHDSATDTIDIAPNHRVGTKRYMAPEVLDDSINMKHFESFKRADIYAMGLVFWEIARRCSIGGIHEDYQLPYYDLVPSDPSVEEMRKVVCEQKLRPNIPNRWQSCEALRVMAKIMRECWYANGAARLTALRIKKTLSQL
pIC50: −log10 of the molar value.
observable: pIC50

# compound, assayedTarget, result
data = [
    ("Cc1cccc(-c2[nH]cnc2-c2ccc3nnn(C)c3c2)n1", "ALK-5 (TβRI) (Homo sapiens, UniProt P36897)", "~7.35"),
]
